assay: Solubility measurement in organic solvents; format: physicochemical; conditions: amount (g) of compound completely dissolved in 3-methoxybutyl acetate
REPORTED_ENDPOINT: Solubility in 3-MBA (g)

1) CCn1c2ccc(C(=O)c3ccccc3C)cc2c2cc(/C(C)=N/OC(C)=O)ccc21 ... 10
2) CC(=O)O/N=C/c1ccc(-c2ccc(-c3nc(C(Cl)(Cl)Cl)nc(C(Cl)(Cl)Cl)n3)cc2)cc1 ... 5

a. CC(=O)O/N=C(\C)c1ccc(-c2nc(C(Cl)(Cl)Cl)nc(C(Cl)(Cl)Cl)n2)cc1
b. CCn1c2ccc(C(=O)c3ccc(OCC4COC(C)(C)O4)cc3)cc2c2cc(/C(CC(c3ccccc3)N(OC(C)=O)C(C)=O)=N/OC(C)=O)ccc21 (stereo not shown)
Which value of Solubility in 3-MBA is numerically greater: that of a or that of b ? Indicate your choice by writing its label. b
(b: 13 g, a: 5 g)

---

assay: Solubility measurement in organic solvents; type: physicochemical; details: amount (g) of compound completely dissolved in dipropylene glycol methyl ether
REPORTED_ENDPOINT: Solubility in DPM (g)

1) CCn1c2ccc(C(=O)c3ccc(OCC4COC(C)(C)O4)cc3)cc2c2cc(/C(CC(c3ccccc3)N(OC(C)=O)C(C)=O)=N/OC(C)=O)ccc21 (stereo not shown) ... 7
2) CCn1c2ccc(C(=O)c3ccccc3C)cc2c2cc(/C(C)=N/OC(C)=O)ccc21 ... 5

A. CC(=O)O/N=C/c1ccc(-c2ccc(-c3nc(C(Cl)(Cl)Cl)nc(C(Cl)(Cl)Cl)n3)cc2)cc1
B. CC(=O)O/N=C(\C)c1ccc(-c2nc(C(Cl)(Cl)Cl)nc(C(Cl)(Cl)Cl)n2)cc1
Which value of Solubility in DPM is numerically greater: that of A or that of B ? Indicate your choice by writing its label. B
(B: 3 g, A: 2 g)

---

assay: Solubility measurement in organic solvents; format: physicochemical; details: amount (g) of compound completely dissolved in cyclohexanone
REPORTED_ENDPOINT: Solubility in CH (g)

A. CC(=O)O/N=C(\C)c1ccc(-c2nc(C(Cl)(Cl)Cl)nc(C(Cl)(Cl)Cl)n2)cc1 [Comparative Example 2]
B. CCn1c2ccc(C(=O)c3ccccc3C)cc2c2cc(/C(C)=N/OC(C)=O)ccc21 [Comparative Example 1]
Of A and B , which shows the smaller Solubility in CH value? Indicate your choice by writing its label. A
(A: 25 g, B: 40 g)

1. CC(=O)O/N=C/c1ccc(-c2ccc(-c3nc(C(Cl)(Cl)Cl)nc(C(Cl)(Cl)Cl)n3)cc2)cc1 [Comparative Example 3]
2. CCn1c2ccc(C(=O)c3ccc(OCC4COC(C)(C)O4)cc3)cc2c2cc(/C(CC(c3ccccc3)N(OC(C)=O)C(C)=O)=N/OC(C)=O)ccc21 (stereo not shown) [Example 1]
Of 1 and 2 , which shows the smaller Solubility in CH value? Indicate your choice by writing its label. 1
(1: 20 g, 2: 60 g)

---

experiment: Solubility measurement in organic solvents; type: physicochemical; details: amount (g) of compound completely dissolved in ethyl-3-ethoxy propionate
REPORTED_ENDPOINT: Solubility in EEP (g)

1. CC(=O)O/N=C/c1ccc(-c2ccc(-c3nc(C(Cl)(Cl)Cl)nc(C(Cl)(Cl)Cl)n3)cc2)cc1 [Comparative Example 3] ... 5

a. CCn1c2ccc(C(=O)c3ccc(OCC4COC(C)(C)O4)cc3)cc2c2cc(/C(CC(c3ccccc3)N(OC(C)=O)C(C)=O)=N/OC(C)=O)ccc21 (stereo not shown) [Example 1]
b. CC(=O)O/N=C(\C)c1ccc(-c2nc(C(Cl)(Cl)Cl)nc(C(Cl)(Cl)Cl)n2)cc1 [Comparative Example 2]
c. CCn1c2ccc(C(=O)c3ccccc3C)cc2c2cc(/C(C)=N/OC(C)=O)ccc21 [Comparative Example 1]
Falling order of Solubility in EEP, please. Rank them, then answer with their labels in that order. a, c, b
(a: 15 g, c: 10 g, b: 6 g)

This collection of values is drawn from patent US8252507B2.
